measurement notes: in vivo
stated conditions: male, wild-type FVB, mouse, po, 25 mg/kg, Tmax
measured quantity: Tmax (h)
Could you give me the number in h? Just the number is fine.

INPUT: Provide measured Tmax value, entry: CC(C)c1nc(CN(C)C(=O)N[C@H](C(=O)N[C@@H](Cc2ccccc2)C[C@H](O)[C@H](Cc2ccccc2)NC(=O)OCc2cncs2)C(C)C)cs1
OUTPUT: 2

====

measurement notes: Plasma pharmacokinetics and tissue distribution 2 h after oral cabazitaxel 10 mg/kg with vehicle or 25 mg/kg ritonavir in wild-type, Oatp1a/1b−/−, Oatp1a/1b/2b1−/−, OATP1B1- and OATP1B3-transgenic mice
Format: in vivo
stated conditions: male, FVB, mouse, plasma, po, 25 mg/kg, wild-type mice; ritonavir 25 mg/kg oral; cabazitaxel 10 mg/kg oral
measured quantity: Tmax (min)
Report the figure in min without appending any unit label.

INPUT: Consider the compound CC(C)c1nc(CN(C)C(=O)N[C@H](C(=O)N[C@@H](Cc2ccccc2)C[C@H](O)[C@H](Cc2ccccc2)NC(=O)OCc2cncs2)C(C)C)cs1 . State its measured Tmax.
OUTPUT: 40
